target: NPR-5b (Caenorhabditis elegans); test: cAMP reporter gene assay, Gi/o (with forskolin), NPR-5b; format: cell-based, C. elegans; design: unit not given here; conditions: NPR-5b; forskolin (1 µM) set to 1.00, increase of cAMP; transiently transfected HEK293 cells; mean ± SEM of at least three independent experiments; SEM
Ends that are not written are not given here.
RECORDED METRIC: Emax
Respond using a number only.

Kindly note the recorded Emax for GLGPRPLRF-NH2 [FLP-21] , which is 3.8

Summary for this substance, RGPSGPLRF-NH2 [FLP-15-2] : Emax is 3.28

Record ADISTFASAINNAGRLRY-NH2 [FLP-34-1] , field Emax: 6.7

Now examine the next entry.
Sure, the documented Emax for SEVPGVLRF-NH2 [FLP-18-5] is 3.6

====

molecular target: NPR-5b (Caenorhabditis elegans, UniProt Q6F3C9); test: IP accumulation assay (Table S8), NPR-5b; type: cell-based, C. elegans; settings: 10 µM peptide, 1 h, HBSS + 20 mM LiCl; transfected HEK293, Table S8 (title: chimeric GαΔ6qi4myr); HTRF IP-One; mean of >=3 independent experiments
Sequence (Q6F3C9 1-433): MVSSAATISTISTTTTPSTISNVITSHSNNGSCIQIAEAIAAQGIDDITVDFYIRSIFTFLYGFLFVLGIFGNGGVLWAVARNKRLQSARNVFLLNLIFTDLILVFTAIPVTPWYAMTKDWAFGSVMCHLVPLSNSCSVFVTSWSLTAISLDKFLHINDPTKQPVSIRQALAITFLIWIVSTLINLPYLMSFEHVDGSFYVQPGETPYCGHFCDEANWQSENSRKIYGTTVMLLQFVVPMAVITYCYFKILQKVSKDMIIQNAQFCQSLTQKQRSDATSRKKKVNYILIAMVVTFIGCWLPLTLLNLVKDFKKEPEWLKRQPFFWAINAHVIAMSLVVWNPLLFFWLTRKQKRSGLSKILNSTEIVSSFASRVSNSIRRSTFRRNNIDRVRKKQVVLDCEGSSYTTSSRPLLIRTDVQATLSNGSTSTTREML
# IP accumulation, NPR-5b values compiled below

Reported IP accumulation, NPR-5b of AGSDPNFLRF-NH2 [FLP-1-2, C. elegans FMRFamide-like peptide, C-terminally amidated, synthesized by SPPS] : 1.80 x-fold of basal

IP accumulation, NPR-5b for NPENDTPFGTMRF-NH2 [FLP-3-4, C. elegans FMRFamide-like peptide, C-terminally amidated, synthesized by SPPS] is 8.18 x-fold of basal

# substance ASPSFIRF-NH2 [FLP-4-2, C. elegans FMRFamide-like peptide, C-terminally amidated, synthesized by SPPS] ; its IP accumulation, NPR-5b = 1.98 x-fold of basal

// moving on: another record for IP accumulation, NPR-5b
Documented IP accumulation, NPR-5b of APKPKFIRF-NH2 [FLP-5-1, C. elegans FMRFamide-like peptide, C-terminally amidated, synthesized by SPPS] : 1.45 x-fold of basal

====

Reported cAMP, x-fold of forskolin (mean), NPR-1 values for a set of substances
molecular target: NPR-1 (Caenorhabditis elegans, UniProt Q18534); assay: cAMP reporter gene assay, Gi/o (inhibition of forskolin-induced cAMP), NPR-1; format: cell-based, C. elegans; parameters: host or cells: HEK293; conditions: 0.1 µM peptide; inhibition of cAMP production induced by 1 µM forskolin (set to 1.00), lower = higher Gi/o activity; transiently transfected HEK293 cells; mean of at least three independent experiments
Sequence (Q18534 whole entry): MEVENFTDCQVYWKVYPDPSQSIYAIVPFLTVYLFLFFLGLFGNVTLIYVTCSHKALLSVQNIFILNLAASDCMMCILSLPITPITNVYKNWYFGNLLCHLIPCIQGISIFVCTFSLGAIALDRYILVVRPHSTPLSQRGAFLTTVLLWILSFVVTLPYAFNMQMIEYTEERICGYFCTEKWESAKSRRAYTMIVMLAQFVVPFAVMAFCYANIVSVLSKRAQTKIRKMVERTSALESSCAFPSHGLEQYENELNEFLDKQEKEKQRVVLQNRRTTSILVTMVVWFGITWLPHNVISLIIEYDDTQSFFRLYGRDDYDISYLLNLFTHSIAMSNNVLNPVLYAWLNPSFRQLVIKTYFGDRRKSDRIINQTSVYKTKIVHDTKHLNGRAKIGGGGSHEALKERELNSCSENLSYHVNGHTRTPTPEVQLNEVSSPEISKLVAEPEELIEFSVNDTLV

# count of solved cases: 3
# cAMP, x-fold of forskolin (mean), NPR-1 measured on NPR-1 (Caenorhabditis elegans, UniProt Q18534) for item NPENDTPFGTMRF-NH2 [FLP-3-4, C. elegans FMRFamide-like peptide, C-terminally amidated, synthesized by SPPS] = 0.87 x-fold of forskolin

Record for APLEGFEDMSGFLRTIDGIQKPRF-NH2 [FLP-33, NPY-like C. elegans FLP with C-terminal RxRF/Ya signature] under target or system NPR-1 (Caenorhabditis elegans, UniProt Q18534): cAMP, x-fold of forskolin (mean), NPR-1 reported as 0.72 x-fold of forskolin

Tested system NPR-1 (Caenorhabditis elegans, UniProt Q18534); cAMP, x-fold of forskolin (mean), NPR-1 recorded for TSGPLGNLAEELNGYSRKKGGFSFRF-NH2 [QRFP26, human pyroglutamylated RFamide peptide, 26 residues, reference compound] was 1.17 x-fold of forskolin

Others:
The reported NPR-1 (Caenorhabditis elegans, UniProt Q18534) cAMP, x-fold of forskolin (mean), NPR-1 of AGSDPNFLRF-NH2 [FLP-1-2, C. elegans FMRFamide-like peptide, C-terminally amidated, synthesized by SPPS] is 0.98 x-fold of forskolin

NPR-1 (Caenorhabditis elegans, UniProt Q18534) data for APKPKFIRF-NH2 [FLP-5-1, C. elegans FMRFamide-like peptide, C-terminally amidated, synthesized by SPPS] ; its cAMP, x-fold of forskolin (mean), NPR-1: 0.54 x-fold of forskolin

Hey, NPR-1 (Caenorhabditis elegans, UniProt Q18534) data for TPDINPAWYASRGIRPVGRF-NH2 [PrRP20, human prolactin-releasing peptide, 20 residues, reference compound] : cAMP, x-fold of forskolin (mean), NPR-1 came out at 1.14 x-fold of forskolin

====

# key: entry, value: IP accumulation, x-fold of basal (mean), Y5R
molecular target: Y5R (Homo sapiens, UniProt Q15761); construct: expressed in transfected cells; host or cells: HEK293, transient; assay: IP accumulation assay, chimeric GαΔ6qi4myr, Y5R; type: cell-based; details: 10 µM peptide; chimeric GαΔ6qi4myr co-transfected; transiently transfected HEK293 cells; mean of at least three independent experiments
Sequence (Q15761 whole entry): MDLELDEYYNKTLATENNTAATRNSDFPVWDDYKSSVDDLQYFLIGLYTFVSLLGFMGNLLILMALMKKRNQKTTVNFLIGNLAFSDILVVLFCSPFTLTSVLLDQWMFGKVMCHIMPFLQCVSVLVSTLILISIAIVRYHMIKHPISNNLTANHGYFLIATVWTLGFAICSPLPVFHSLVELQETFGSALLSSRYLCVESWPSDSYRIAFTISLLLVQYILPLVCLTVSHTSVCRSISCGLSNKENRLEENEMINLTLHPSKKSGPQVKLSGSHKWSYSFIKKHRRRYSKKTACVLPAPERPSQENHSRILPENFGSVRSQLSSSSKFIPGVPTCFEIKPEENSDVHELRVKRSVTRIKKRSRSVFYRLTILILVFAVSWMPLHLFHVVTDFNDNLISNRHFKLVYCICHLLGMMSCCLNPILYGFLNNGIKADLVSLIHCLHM

AGSDPNFLRF-NH2 [FLP-1-2, C. elegans FMRFamide-like peptide, C-terminally amidated, synthesized by SPPS] tested on Y5R (Homo sapiens, UniProt Q15761) gave IP accumulation, x-fold of basal (mean), Y5R: 1.17 x-fold of basal

Query APKPKFIRF-NH2 [FLP-5-1, C. elegans FMRFamide-like peptide, C-terminally amidated, synthesized by SPPS] on Y5R (Homo sapiens, UniProt Q15761); IP accumulation, x-fold of basal (mean), Y5R returned: 5.88 x-fold of basal

Others:
Field IP accumulation, x-fold of basal (mean), Y5R (system: Y5R (Homo sapiens, UniProt Q15761)) for entry ASPSFIRF-NH2 [FLP-4-2, C. elegans FMRFamide-like peptide, C-terminally amidated, synthesized by SPPS] = 1.29 x-fold of basal

Item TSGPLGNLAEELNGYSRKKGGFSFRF-NH2 [QRFP26, human pyroglutamylated RFamide peptide, 26 residues, reference compound] was tested on Y5R (Homo sapiens, UniProt Q15761); the reported IP accumulation, x-fold of basal (mean), Y5R is 3.57 x-fold of basal

Item: NPENDTPFGTMRF-NH2 [FLP-3-4, C. elegans FMRFamide-like peptide, C-terminally amidated, synthesized by SPPS] | System: Y5R (Homo sapiens, UniProt Q15761) | IP accumulation, x-fold of basal (mean), Y5R: 1.41 x-fold of basal

Assay Y5R (Homo sapiens, UniProt Q15761), sample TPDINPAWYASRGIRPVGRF-NH2 [PrRP20, human prolactin-releasing peptide, 20 residues, reference compound] , IP accumulation, x-fold of basal (mean), Y5R read: 5.90 x-fold of basal

Form: item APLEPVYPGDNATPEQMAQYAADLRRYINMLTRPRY-NH2 [PP, human pancreatic polypeptide, reference compound] ; test system Y5R (Homo sapiens, UniProt Q15761); IP accumulation, x-fold of basal (mean), Y5R: 17.90 x-fold of basal

====

molecular target: NPR-4b (Caenorhabditis elegans, UniProt A0A078BTK0); experiment: cAMP reporter gene assay, Gi/o (inhibition of forskolin-induced cAMP), NPR-4b; assay type: cell-based, C. elegans; details: NPR-4b; forskolin (1 µM) set to 1.00, lower values correspond to high Gi/o activity; transiently transfected HEK293 cells; mean ± SEM of at least three independent experiments; SEM
Sequence (A0A078BTK0 1-376): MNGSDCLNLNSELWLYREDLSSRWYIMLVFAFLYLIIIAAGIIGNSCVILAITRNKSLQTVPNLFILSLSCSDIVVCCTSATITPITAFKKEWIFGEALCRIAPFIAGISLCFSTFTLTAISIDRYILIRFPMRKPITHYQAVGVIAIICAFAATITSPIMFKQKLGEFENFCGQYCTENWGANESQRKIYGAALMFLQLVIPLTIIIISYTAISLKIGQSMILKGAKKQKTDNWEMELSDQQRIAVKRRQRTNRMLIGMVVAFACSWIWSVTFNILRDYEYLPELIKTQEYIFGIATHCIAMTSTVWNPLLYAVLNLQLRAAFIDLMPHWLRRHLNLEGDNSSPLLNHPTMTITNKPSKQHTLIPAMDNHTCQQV
Ends that are not written are not given here.
RECORDED METRIC: Emax (%)
Please give a number only; it is taken to be in %.

For record KHEYLRF-NH2 [FLP-14] the listed Emax is -0.77

Others:
The recorded Emax for entry SEVPGVLRF-NH2 [FLP-18-5] equals -0.6

Emax measured on RGPSGPLRF-NH2 [FLP-15-2] = -0.65

Please fill in: Emax reported for GLGPRPLRF-NH2 [FLP-21] = -0.58

====

biological target: PrRPR (Homo sapiens, UniProt P49683); construct: expressed in transfected cells; host or cells: HEK293, transient; assay: IP accumulation assay, endogenous Gαq coupling, PrRPR; format: cell-based; settings: 0.1 µM peptide, transiently transfected HEK293 cells, mean of at least three independent experiments
Sequence (P49683 whole entry): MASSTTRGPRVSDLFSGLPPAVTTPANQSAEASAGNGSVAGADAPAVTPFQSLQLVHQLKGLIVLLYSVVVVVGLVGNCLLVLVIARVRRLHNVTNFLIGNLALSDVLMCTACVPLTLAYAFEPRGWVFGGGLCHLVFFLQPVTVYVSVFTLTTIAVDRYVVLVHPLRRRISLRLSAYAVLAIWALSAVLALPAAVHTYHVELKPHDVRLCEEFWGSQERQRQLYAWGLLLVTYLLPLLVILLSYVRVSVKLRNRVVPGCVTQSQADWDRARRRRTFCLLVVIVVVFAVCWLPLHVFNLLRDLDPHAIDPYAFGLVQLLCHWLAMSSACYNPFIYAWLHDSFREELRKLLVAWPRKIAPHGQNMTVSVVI
RECORDED METRIC: IP accumulation, x-fold of basal (mean), PrRPR#

Recorded IP accumulation, x-fold of basal (mean), PrRPR#, per entry:
// IP accumulation, x-fold of basal (mean), PrRPR# lookup, substance = NPENDTPFGTMRF-NH2 [FLP-3-4, C. elegans FMRFamide-like peptide, C-terminally amidated, synthesized by SPPS] , result: 1.86 x-fold of basal

Reported IP accumulation, x-fold of basal (mean), PrRPR# for AGSDPNFLRF-NH2 [FLP-1-2, C. elegans FMRFamide-like peptide, C-terminally amidated, synthesized by SPPS] was 1.04 x-fold of basal

IP accumulation, x-fold of basal (mean), PrRPR# in this record for EASAFGDIIGELKGKGLGGRMRF-NH2 [FLP-27, NPY-like C. elegans FLP with C-terminal RxRF/Ya signature] : 0.93 x-fold of basal

Recorded IP accumulation, x-fold of basal (mean), PrRPR# (substance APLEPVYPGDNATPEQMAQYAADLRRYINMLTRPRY-NH2 [PP, human pancreatic polypeptide, reference compound] ): 0.99 x-fold of basal

For record ASPSFIRF-NH2 [FLP-4-2, C. elegans FMRFamide-like peptide, C-terminally amidated, synthesized by SPPS] the listed IP accumulation, x-fold of basal (mean), PrRPR# is 0.85 x-fold of basal

Next:
Notebook: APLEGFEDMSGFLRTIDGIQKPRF-NH2 [FLP-33, NPY-like C. elegans FLP with C-terminal RxRF/Ya signature] , IP accumulation, x-fold of basal (mean), PrRPR# read as 0.91 x-fold of basal
